Subject Of Test: hSGLT1 T395A (Homo sapiens, UniProt P13866, T395A)
Sequence (P13866 whole entry T395A): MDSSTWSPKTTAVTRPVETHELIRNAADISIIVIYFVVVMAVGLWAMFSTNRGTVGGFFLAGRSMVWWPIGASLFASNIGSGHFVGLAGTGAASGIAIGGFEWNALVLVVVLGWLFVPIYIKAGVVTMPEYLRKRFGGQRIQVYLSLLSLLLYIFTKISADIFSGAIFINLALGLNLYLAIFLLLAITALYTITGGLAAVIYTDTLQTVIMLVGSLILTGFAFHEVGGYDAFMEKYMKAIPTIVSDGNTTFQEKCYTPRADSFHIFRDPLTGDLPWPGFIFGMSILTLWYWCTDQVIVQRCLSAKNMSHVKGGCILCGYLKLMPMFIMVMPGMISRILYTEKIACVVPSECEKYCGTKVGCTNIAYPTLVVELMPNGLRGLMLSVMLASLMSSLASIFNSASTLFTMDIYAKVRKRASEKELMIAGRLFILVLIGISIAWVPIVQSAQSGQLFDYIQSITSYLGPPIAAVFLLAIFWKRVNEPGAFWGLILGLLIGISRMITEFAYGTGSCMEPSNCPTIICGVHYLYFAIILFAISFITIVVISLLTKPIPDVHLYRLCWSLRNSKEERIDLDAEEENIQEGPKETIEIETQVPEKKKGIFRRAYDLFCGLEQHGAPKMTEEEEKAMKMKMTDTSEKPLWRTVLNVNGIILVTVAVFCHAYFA
Protocol Details: SGLT current measurement in oocytes, hSGLT1 T395A
Assay Setup: effect on αMDG currents in 30 mM αMDG, 22 °C
Observation Type: pKi
One number for each entry, as −log10 of the molar value.

// sample CCOc1ccc(Cc2cc(O)ccc2Cl)cc1 , its pKi was 3.73

---

Hi there, I'd appreciate the recorded pKi for every entry that follows.
Subject Of Test: hSGLT2 wild-type (Homo sapiens, UniProt P31639)
Sequence (P31639 whole entry): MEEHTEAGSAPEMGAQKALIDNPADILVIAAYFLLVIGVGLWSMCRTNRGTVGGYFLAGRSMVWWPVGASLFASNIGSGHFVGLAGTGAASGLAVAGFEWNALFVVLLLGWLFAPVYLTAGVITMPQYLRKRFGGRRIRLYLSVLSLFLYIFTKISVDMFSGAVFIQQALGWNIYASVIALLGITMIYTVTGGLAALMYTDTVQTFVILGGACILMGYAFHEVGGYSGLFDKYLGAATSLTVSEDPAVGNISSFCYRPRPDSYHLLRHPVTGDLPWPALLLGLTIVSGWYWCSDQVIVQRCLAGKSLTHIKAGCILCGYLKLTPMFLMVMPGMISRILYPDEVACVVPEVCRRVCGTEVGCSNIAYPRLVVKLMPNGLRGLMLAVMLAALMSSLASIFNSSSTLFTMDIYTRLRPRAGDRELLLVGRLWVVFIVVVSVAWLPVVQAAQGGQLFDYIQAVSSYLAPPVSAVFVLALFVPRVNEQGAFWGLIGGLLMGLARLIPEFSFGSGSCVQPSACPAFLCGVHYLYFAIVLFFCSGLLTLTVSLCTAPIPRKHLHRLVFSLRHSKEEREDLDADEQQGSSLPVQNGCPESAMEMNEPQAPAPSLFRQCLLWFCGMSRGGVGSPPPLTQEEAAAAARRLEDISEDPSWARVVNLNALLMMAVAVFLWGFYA
Sequence (Q13113 whole entry partner): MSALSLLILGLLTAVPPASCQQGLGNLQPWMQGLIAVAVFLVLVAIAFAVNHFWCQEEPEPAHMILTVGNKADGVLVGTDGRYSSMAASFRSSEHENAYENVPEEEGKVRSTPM
Protocol Details: SGLT current measurement in oocytes, hSGLT2 wild-type (MAP17 co-injected)
Assay Setup: 22 °C
One number for each entry, as −log10 of the molar value.

Compound: CCOc1ccc(Cc2cc(O)ccc2Cl)cc1 [dapa-aglycon]
pKi: 3.96

// switching to the query compound
pKi measured on O=C(CCc1ccc(O)cc1)c1c(O)cc(O)cc1O [phloretin] = 4.57
